biological target: human LPA1 (Homo sapiens, UniProt Q92633); construct: expressed in transfected cells; host or cells: Chinese hamster ovary (CHO) cells; assay: LPA1 functional antagonist assay (calcium flux); type: cell-based; conditions: human LPA1 functional antagonist assay; read-out: hLPA1 IC50
Sequence (Q92633 whole entry): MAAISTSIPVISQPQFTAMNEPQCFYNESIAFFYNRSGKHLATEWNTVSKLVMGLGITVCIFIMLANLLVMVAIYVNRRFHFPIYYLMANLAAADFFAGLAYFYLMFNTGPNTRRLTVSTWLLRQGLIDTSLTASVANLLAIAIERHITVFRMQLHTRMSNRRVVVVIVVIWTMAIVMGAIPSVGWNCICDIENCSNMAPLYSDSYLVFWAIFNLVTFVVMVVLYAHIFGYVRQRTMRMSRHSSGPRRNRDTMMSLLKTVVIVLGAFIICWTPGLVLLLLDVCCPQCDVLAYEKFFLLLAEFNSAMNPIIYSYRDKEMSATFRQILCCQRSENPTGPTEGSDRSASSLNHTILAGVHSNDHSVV
pIC50: −log10 of the molar value.
Label 1 when pIC50 is at or above 7; anything below gets 0.

[
  {
    "COMPOUND": "Cc1nc(-c2nnn(C)c2CNC(=O)OCCCC(F)(F)F)ccc1O[C@H]1CCC[C@H](C(=O)O)C1 [Example 169]",
    "TARGET_UNDER_TEST": "human LPA1 (Homo sapiens, UniProt Q92633)",
    "CLASSIFICATION": 1
  },
  {
    "COMPOUND": "Cc1nc(-c2nnn(C)c2CNC(=O)OCC2CC2C)ccc1O[C@H]1CCC[C@H](C(=O)O)C1 (stereo partly shown) [Example 179]",
    "TARGET_UNDER_TEST": "human LPA1 (Homo sapiens, UniProt Q92633)",
    "CLASSIFICATION": 1
  },
  {
    "COMPOUND": "Cc1nc(-c2nnn(C)c2CNC(=O)OCCCCF)ccc1O[C@H]1CCC[C@H](C(=O)O)C1 [Example 162]",
    "TARGET_UNDER_TEST": "human LPA1 (Homo sapiens, UniProt Q92633)",
    "CLASSIFICATION": 1
  },
  {
    "COMPOUND": "CC(COC(=O)NCc1c(-c2ncc(O[C@H]3CCC[C@H](C(=O)O)C3)cn2)nnn1C)CC(F)(F)F (stereo partly shown) [Example 154]",
    "TARGET_UNDER_TEST": "human LPA1 (Homo sapiens, UniProt Q92633)",
    "CLASSIFICATION": 0
  }
]

----------
// reported pIC50 per item
target: human LPA1 (Homo sapiens); construct: expressed in transfected cells; host or cells: Chinese hamster ovary (CHO) cells; assay: LPA1 functional antagonist assay (calcium flux); assay type: cell-based; settings: CHO cells overexpressing human LPA1; calcium flux induced by 10 nM LPA; read-out: hLPA1 IC50
pIC50: −log10 of the molar value.

[
  {
    "COMPOUND": "Cn1nnc(-c2ccc(O[C@H]3CCC[C@H](C(=O)O)C3)c(C(F)(F)F)n2)c1CNC(=O)OCc1ccccc1",
    "pIC50": 7.85
  },
  {
    "COMPOUND": "Cc1nc(-c2nnn(C)c2CCNC(=O)OCC(C)(C)C)ccc1O[C@H]1CCC[C@H](C(=O)O)C1",
    "pIC50": 5.87
  },
  {
    "COMPOUND": "Cc1nc(-c2nnn(C)c2CCNC(=O)OC2CCCC2)ccc1O[C@H]1CCC[C@H](C(=O)O)C1",
    "pIC50": 5.74
  },
  {
    "COMPOUND": "Cc1nc(-c2nnn(C)c2CNC(=O)NCc2ccccc2)ccc1O[C@H]1CCC[C@H](C(=O)O)C1",
    "pIC50": 7.20
  },
  {
    "COMPOUND": "Cc1nc(-c2nnn(C)c2CNC(=O)OCC(C)C)c(F)cc1O[C@H]1CCC[C@H](C(=O)O)C1",
    "pIC50": 6.42
  },
  {
    "COMPOUND": "CCc1nc(-c2nnn(C)c2NC(=O)OCC2CC2)ccc1O[C@H]1CCC[C@H](C(=O)O)C1",
    "pIC50": 7.55
  },
  {
    "COMPOUND": "CCc1nc(-c2nnn(C)c2CNC(=O)N(C)CC2CCC2)ccc1O[C@H]1CCC[C@H](C(=O)O)C1",
    "pIC50": 7.21
  },
  {
    "COMPOUND": "Cc1nc(-c2nnn(C)c2CNC(=O)N(C)[C@H](C)c2ccccc2)ccc1O[C@H]1CCC[C@H](C(=O)O)C1",
    "pIC50": 6.66
  },
  {
    "COMPOUND": "CCCC(NC(=O)NCc1c(-c2ccc(O[C@H]3CCC[C@H](C(=O)O)C3)c(C)n2)nnn1C)c1ccccc1 (mixture of isomers)",
    "pIC50": 6.73
  },
  {
    "COMPOUND": "CCCCCCOC(=O)NCc1c(-c2ccc(O[C@H]3CCC[C@H](C(=O)O)C3)cn2)nnn1C",
    "pIC50": 6.37
  },
  {
    "COMPOUND": "CCCC1(COC(=O)NCc2c(-c3ccc(O[C@H]4CCC[C@H](C(=O)O)C4)cn3)nnn2C)CC1",
    "pIC50": 7.55
  },
  {
    "COMPOUND": "CCCCN(C)S(=O)(=O)N(C)Cc1c(-c2ccc(O[C@H]3CCC[C@H](C(=O)O)C3)c(C)n2)nnn1C",
    "pIC50": 6.96
  },
  {
    "COMPOUND": "CC(C)COC(=O)NCc1c(-c2ccc(O[C@H]3CCC[C@H](C(=O)O)C3)cn2)nnn1C",
    "pIC50": 6.75
  },
  {
    "COMPOUND": "Cc1nc(-c2nnn(C)c2CNS(=O)(=O)N(C)CC2CCCC2)ccc1O[C@H]1CCC[C@H](C(=O)O)C1",
    "pIC50": 6.78
  },
  {
    "COMPOUND": "C[C@@H](OC(=O)Nc1c(-c2ccc(O[C@H]3CCC[C@H](C(=O)O)C3)cn2)nnn1C)C1CC1",
    "pIC50": 7.10
  },
  {
    "COMPOUND": "Cc1nc(-c2nnn(C)c2CNC(=O)OCC2(F)CC2)ccc1O[C@H]1CCC[C@H](C(=O)O)C1",
    "pIC50": 6.22
  },
  {
    "COMPOUND": "Cc1nc(-c2nnn(C)c2CN(C)C(=O)NCc2ccccc2)ccc1O[C@H]1CCC[C@H](C(=O)O)C1",
    "pIC50": 6.66
  },
  {
    "COMPOUND": "Cc1nc(-c2nnn(C)c2CNC(=O)OCc2ccccc2)ccc1O[C@H]1CCC[C@H](C(=O)O)C1",
    "pIC50": 8.05
  },
  {
    "COMPOUND": "Cc1nc(-c2nnn(C)c2NC(=O)OCCC(C)C)ccc1O[C@H]1CCC[C@H](C(=O)O)C1",
    "pIC50": 7.70
  },
  {
    "COMPOUND": "CCCCOC(=O)NCCc1c(-c2ccc(O[C@H]3CCC[C@H](C(=O)O)C3)c(C)n2)nnn1C",
    "pIC50": 5.83
  },
  {
    "COMPOUND": "Cc1nc(-c2nnn(C)c2NC(=O)OCC2CCC2)ccc1O[C@H]1CCC[C@H](C(=O)O)C1",
    "pIC50": 7.66
  },
  {
    "COMPOUND": "CCCCN(C)C(=O)NCc1c(-c2ccc(O[C@H]3CCC[C@H](C(=O)O)C3)c(CC)n2)nnn1C",
    "pIC50": 7.36
  },
  {
    "COMPOUND": "Cc1nc(-c2nnn(C)c2CNC(=O)OCc2cccc(F)c2)ccc1O[C@H]1CCC[C@H](C(=O)O)C1",
    "pIC50": 8.22
  },
  {
    "COMPOUND": "CC[C@H](C)COC(=O)N(C)Cc1c(-c2ccc(O[C@H]3CCC[C@H](C(=O)O)C3)c(C)n2)nnn1C",
    "pIC50": 7.54
  },
  {
    "COMPOUND": "CC(C)COC(=O)NCc1c(-c2ccc(O[C@H]3CCC[C@H](C(=O)O)C3)c(C(F)(F)F)n2)nnn1C",
    "pIC50": 7.60
  },
  {
    "COMPOUND": "Cc1nc(-c2nnn(C)c2CNC(=O)N(C)CC(C)C)ccc1O[C@H]1CCC[C@H](C(=O)O)C1",
    "pIC50": 6.56
  },
  {
    "COMPOUND": "CC(COC(=O)NCc1c(-c2ccc(O[C@H]3CCC[C@H](C(=O)O)C3)cn2)nnn1C)CC(F)(F)F (mixture of isomers)",
    "pIC50": 6.99
  },
  {
    "COMPOUND": "CCC1(COC(=O)NCc2c(-c3ccc(O[C@H]4CCC[C@H](C(=O)O)C4)c(C)n3)nnn2C)CC1",
    "pIC50": 7.42
  },
  {
    "COMPOUND": "CCCOC(=O)NCc1c(-c2ccc(O[C@H]3CCC[C@H](C(=O)O)C3)c(C(F)(F)F)n2)nnn1C",
    "pIC50": 6.06
  }
]
